Biological target: T1, murine GPC3-his protein (murine, UniProt Q8CFZ4 25-558, limits assumed)
T1 construct: Bought protein; also called mouse GPC3 protein; murine GPC3 protein; not shown: His tag
T1 sequence (Q8CFZ4 25-558 limits assumed): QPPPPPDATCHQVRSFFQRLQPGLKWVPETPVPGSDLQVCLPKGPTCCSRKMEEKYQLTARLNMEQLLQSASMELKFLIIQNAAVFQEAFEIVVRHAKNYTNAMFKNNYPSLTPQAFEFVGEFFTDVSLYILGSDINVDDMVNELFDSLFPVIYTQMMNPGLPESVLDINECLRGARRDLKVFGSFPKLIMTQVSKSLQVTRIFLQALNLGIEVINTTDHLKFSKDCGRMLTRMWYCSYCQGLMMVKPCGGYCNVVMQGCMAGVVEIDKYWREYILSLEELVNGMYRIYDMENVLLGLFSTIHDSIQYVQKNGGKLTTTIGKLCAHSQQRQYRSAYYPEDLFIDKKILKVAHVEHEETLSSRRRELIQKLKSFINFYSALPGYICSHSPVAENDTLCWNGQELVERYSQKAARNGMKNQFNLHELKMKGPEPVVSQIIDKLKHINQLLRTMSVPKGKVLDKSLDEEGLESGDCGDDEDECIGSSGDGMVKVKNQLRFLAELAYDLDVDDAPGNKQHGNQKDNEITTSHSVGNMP
Test: ELISA, murine GPC3-his coated; antibody 0.0008 nM
Recorded metric: OD450 nm
Respond using a number only.

Ask: Name the reported OD450 nm value associated with the binder hAb001H1L1 (antibody, human IgG1, V domains shown, Humanized F2.169.2, H1+L1) VH: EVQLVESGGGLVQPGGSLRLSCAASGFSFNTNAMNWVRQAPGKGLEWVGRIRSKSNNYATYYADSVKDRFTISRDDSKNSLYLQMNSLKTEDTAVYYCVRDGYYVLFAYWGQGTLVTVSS VL: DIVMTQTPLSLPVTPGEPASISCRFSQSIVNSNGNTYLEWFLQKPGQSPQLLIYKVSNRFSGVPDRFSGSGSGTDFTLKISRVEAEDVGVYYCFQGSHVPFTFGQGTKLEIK
Result: 0.239

Ask: Reported OD450 nm for hAb001H2L1b (antibody, human IgG1, V domains shown, Humanized F2.169.2, H2+L1b) VH: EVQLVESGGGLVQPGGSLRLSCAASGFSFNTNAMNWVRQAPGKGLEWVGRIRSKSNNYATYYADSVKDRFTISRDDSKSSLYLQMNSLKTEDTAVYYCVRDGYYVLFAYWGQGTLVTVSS VL: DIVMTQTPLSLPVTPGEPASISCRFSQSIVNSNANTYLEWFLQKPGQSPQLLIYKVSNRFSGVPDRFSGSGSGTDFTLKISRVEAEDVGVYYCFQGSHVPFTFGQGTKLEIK : what is it?
Result: 0.199

Here is the next item to consider.
Ask: Would you mind telling me what OD450 nm value was observed for hAb001H2L1 (antibody, human IgG1, V domains shown, Humanized F2.169.2, H2+L1) VH: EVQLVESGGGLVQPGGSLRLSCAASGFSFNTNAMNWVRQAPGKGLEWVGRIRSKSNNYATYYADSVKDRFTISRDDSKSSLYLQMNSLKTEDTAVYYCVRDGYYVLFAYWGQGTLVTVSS VL: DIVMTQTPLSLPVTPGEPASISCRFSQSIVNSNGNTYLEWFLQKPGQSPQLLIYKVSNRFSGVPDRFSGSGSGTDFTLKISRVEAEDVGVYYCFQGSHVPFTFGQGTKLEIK ?
Result: 0.277
